This collection of values is drawn from PubChem BioAssay (NCI).

GI50 values for the compounds below.
- System: NCI/ADR-RES ovarian
- Protocol text: NCI tumour cell line growth inhibition, 48 h
Reported endpoint: GI50

> print(dat)
                                   compound               system  measured
1  CCCCCCCCCCCCCCNc1nc(C(=O)OCC)ncc1-c1ccc(C(F)(F)F)cc1  NCI/ADR-RES ovarian  > 100 µM
2  COc1ccc2nc(NC(=O)COc3cc(/C=C\c4cc(OC)c(OC)c(OC)c4)ccc3OC)sc2c1  NCI/ADR-RES ovarian    2.3 µM
3  O=C1CS/C(=N/S(=O)(=O)c2ccc(N3N=C4c5ccccc5CC4C3c3cccs3)cc2)N(c2ccccc2)C1 (stereo not drawn)  NCI/ADR-RES ovarian  > 100 µM
